# tested.system: PD-1/PD-L1 (Homo sapiens, UniProt Q9NZQ7)
# Sequence (Q9NZQ7 19-238 limits assumed): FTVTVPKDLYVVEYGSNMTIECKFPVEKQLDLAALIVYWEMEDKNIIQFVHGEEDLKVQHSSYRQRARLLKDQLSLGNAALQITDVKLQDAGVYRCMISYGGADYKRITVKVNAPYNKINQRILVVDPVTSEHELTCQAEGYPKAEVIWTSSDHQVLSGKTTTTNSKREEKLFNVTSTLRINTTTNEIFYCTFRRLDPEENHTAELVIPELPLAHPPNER
# test.name: PD-1/PD-L1 biochemical protein-protein interaction assay (ALPHA)
# applied.conditions: 0.3 nM His tagged PD-L1, 2.5 nM biotinylated Fc-PD-1, 60 minutes at 25° C., read-out: IC50 PD-L1-PD-1 Alpha IC50-mono PD-L1-fcP-D1
pIC50: −log10 of the molar value.
Use fulfilled when the recorded pIC50 is no lower than 9; use not fulfilled when it is lower.

# structure.smiles, tested.system, category.label
data = [
    ("Cc1c(COc2cc(OCc3cncc(C#N)c3)c(CN[C@@](C)(CO)C(=O)O)cc2Cl)cccc1-c1cccc(-c2ccc(CN[C@H]3CC[C@H](O)CC3)cc2)c1C", "PD-1/PD-L1 (Homo sapiens, UniProt Q9NZQ7)", "fulfilled"),
    ("Cc1c(COc2cc(OCc3cncc(C#N)c3)c(CN[C@H]3CC[C@@H](C(=O)O)C3)cc2Cl)cccc1-c1cccc(-c2ccc(OCCNCCO)cc2)c1C", "PD-1/PD-L1 (Homo sapiens, UniProt Q9NZQ7)", "fulfilled"),
    ("Cc1c(COc2cc(OCc3cncc(C#N)c3)c(CN[C@@](C)(CO)C(=O)O)cc2Cl)cccc1-c1cccc(-c2ccc3c(c2)CC[C@H]3N(C)C)c1C", "PD-1/PD-L1 (Homo sapiens, UniProt Q9NZQ7)", "fulfilled"),
    ("C[C@@](CO)(NCc1cc(Cl)c(OCc2cccc(-c3cccc(-c4ccc(OCCN5CC6(CCC(=O)N6)C5)cc4)c3Cl)c2Cl)nc1OCc1cc(C#N)cc(C#N)c1)C(=O)O", "PD-1/PD-L1 (Homo sapiens, UniProt Q9NZQ7)", "fulfilled"),
    ("COc1nc(O[C@H]2CCc3c(-c4cccc5c4CC[C@@H]5Oc4nc(OC)c(CNC[C@H](O)CC(=O)O)cc4Br)cccc32)c(Br)cc1CNC[C@H](O)CC(=O)O", "PD-1/PD-L1 (Homo sapiens, UniProt Q9NZQ7)", "fulfilled"),
    ("C[C@@](CO)(NCc1cc(Cl)c(O[C@H]2CCc3c(-c4cccc5c4CC[C@@H]5Oc4nc(OCc5cncc(S(C)(=O)=O)c5)c(CNCCO)cc4Cl)cccc32)nc1OCc1cncc(S(C)(=O)=O)c1)C(=O)O", "PD-1/PD-L1 (Homo sapiens, UniProt Q9NZQ7)", "fulfilled"),
    ("Cc1c(COc2cc(OCc3cncc(C#N)c3)c(CNC[C@@H](O)CC(=O)O)cc2Cl)cccc1-c1cccc(-c2ccc(CN3CC[C@H](O)C3)cc2)c1C", "PD-1/PD-L1 (Homo sapiens, UniProt Q9NZQ7)", "fulfilled"),
    ("Cc1c(COc2nc(OCCN3CCOCC3)c(CNC[C@@H](O)CC(=O)O)cc2Cl)cccc1-c1cccc(COc2nc(OCCN3CCOCC3)c(CNC[C@@H](O)CC(=O)O)cc2Cl)c1C", "PD-1/PD-L1 (Homo sapiens, UniProt Q9NZQ7)", "fulfilled"),
    ("Cc1c(-c2ccc(OCCNC[C@@H](O)CC(=O)O)cc2)cccc1-c1cccc2c1CC[C@@H]2Oc1nc(OCc2cncc(C#N)c2)c(CNC[C@@H](O)CC(=O)O)cc1Br", "PD-1/PD-L1 (Homo sapiens, UniProt Q9NZQ7)", "fulfilled"),
    ("Cc1c(COc2cc(OCc3cncc(C#N)c3)c(CN[C@@](C)(CO)C(=O)O)cc2Cl)cccc1-c1cccc(-c2ccc(S(N)(=O)=O)cc2)c1C", "PD-1/PD-L1 (Homo sapiens, UniProt Q9NZQ7)", "fulfilled"),
    ("COc1nc(O[C@H]2CCc3c(-c4cccc(-c5ccc(C6=N[C@H](C)CN6)c(OC)n5)c4Cl)cccc32)c(Br)cc1CN[C@@](C)(CO)C(=O)O", "PD-1/PD-L1 (Homo sapiens, UniProt Q9NZQ7)", "fulfilled"),
    ("N#Cc1cncc(COc2nc(O[C@H]3CCc4c(-c5cccc6c5CC[C@@H]6Oc5nc(OCc6cncc(C#N)c6)c(CNCCO)cc5Br)cccc43)c(Br)cc2CNCCO)c1", "PD-1/PD-L1 (Homo sapiens, UniProt Q9NZQ7)", "not fulfilled"),
    ("COc1nc(O[C@H]2CCc3c(-c4cccc(-c5ccc(CNC[C@@H]6CCC(=O)N6)cc5)c4Cl)cccc32)c(Cl)cc1CN[C@H]1CCC[C@H]1O", "PD-1/PD-L1 (Homo sapiens, UniProt Q9NZQ7)", "fulfilled"),
    ("Cc1c(COc2cc(OCCN3CCOCC3)c(CNCCO)cc2Cl)cccc1-c1cccc(COc2cc(OCCN3CCOCC3)c(CNCCO)cc2Cl)c1C", "PD-1/PD-L1 (Homo sapiens, UniProt Q9NZQ7)", "not fulfilled"),
    ("N#Cc1cc(C#N)cc(COc2nc(OCc3cccc(-c4cccc(-c5ccc(CNC[C@@H]6CCC(=O)N6)cc5)c4Cl)c3Cl)c(Cl)cc2CNC[C@@H](O)CC(=O)O)c1", "PD-1/PD-L1 (Homo sapiens, UniProt Q9NZQ7)", "fulfilled"),
    ("COc1nc(OCc2cccc(-c3cccc(COc4nc(OC)c(CNC[C@H](O)C(=O)O)cc4Cl)c3C)c2C)c(Cl)cc1CNC[C@H](O)C(=O)O", "PD-1/PD-L1 (Homo sapiens, UniProt Q9NZQ7)", "not fulfilled"),
    ("COc1nc(/C=C/c2cccc(-c3cccc(/C=C/c4nc(OC)c(CNC[C@@H](O)CC(=O)O)cc4Cl)c3C)c2C)c(Cl)cc1CNC[C@@H](O)CC(=O)O", "PD-1/PD-L1 (Homo sapiens, UniProt Q9NZQ7)", "not fulfilled"),
    ("COc1nc(-c2cccc(-c3cccc(COc4nc(OCc5cncc(C#N)c5)c(CNCCO)cc4Br)c3Cl)c2Cl)ccc1C1=NCCN1", "PD-1/PD-L1 (Homo sapiens, UniProt Q9NZQ7)", "fulfilled"),
]

Source of measurements: patent US12590062B2
